Source listed as PubChem BioAssay (NCATS).

Assay: qHTS for differential inhibitors of proliferation of Plasmodium falciparum line D10 (AID 1877);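 also: parasites grown with compound for 72 h before DNA staining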
Conditions: series mostly up to 28.7 µM
Results filed as inconclusive are left out. Calls of active or inactive are those of the source. Calls follow the shape of the dose curve; as a rule, active = well fitted curve in the direction sought with a large enough effect; inconclusive = small, poorly fitted or top-dose-only effect, or another doubt; inactive = no such curve, though single readings can be large or run the other way.
Labels: yes (active), no (inactive)

COMPOUND | CLASS LABEL
CNCCC(Oc1ccc(C(F)(F)F)cc1)c1ccccc1 (stereo not drawn) | yes
OCCN1CCN(CCCN2c3ccccc3Sc3ccc(C(F)(F)F)cc32)CC1 | yes
CCC1(C2=NCCN2)Cc2ccccc2O1 (stereo not drawn) | no

====

Tested on: CP194
Assay: qHTS profiling for inhibitors of Plasmodium falciparum proliferation (AID 504749); also: nearly all actives have a fitted effect of over 60% in size
Conditions: P. falciparum in erythrocytes, SYBR Green DNA, 72 h; series mostly up to 28.7 µM
Records with an inconclusive call do not appear. The source made the active and inactive calls. Calls follow the shape of the dose curve; as a rule, active = well fitted inhibition curve with a large enough effect; inconclusive = small, poorly fitted or top-dose-only effect; inactive = flat fitted curve, though single readings scatter.

MOLECULE | outcome
CCOP(=S)(OCC)Oc1cc(C)nc(C(C)C)n1 | inactive
Cc1ccc(-c2nc3ccc(C)cn3c2CC(=O)N(C)C)cc1 | inactive
OCCOc1ccccc1 | inactive
CC(C)=CC1C(C(=O)OCc2cccc(Oc3ccccc3)c2)C1(C)C (stereo not given) | inactive
CC[C@@H](CO)NC(=O)[C@@H]1C=C2c3cccc4[nH]cc(c34)C[C@H]2N(C)C1 | inactive

====

Listing of recorded AC50 by entry.
Settings: Ebola virus entry assay, reporter ratio channel; Channel type: primary
Calls of active or inactive are those of the source.
MEASURE: AC50

COMPOUND STRUCTURE | RESULT
COc1cc(C(C)=O)ccc1OCCCN1CCC(c2noc3cc(F)ccc23)CC1 | 28.2 µM (active)
COc1ccc([C@@H]2Sc3ccccc3N(CCN(C)C)C(=O)[C@@H]2OC(C)=O)cc1 | 25.1 µM (active)
CC(C)C[C@H](NC(=O)[C@H](Cc1ccccc1)NC(=O)c1cnccn1)B(O)O | 1.26 µM (active)
COc1cc(NCc2ccc3nc(N)nc(N)c3c2C)cc(OC)c1OC | 28.2 µM (active)
CCN(CC)CCOC(=O)C1(C2CCCCC2)CCCCC1 | 10 µM (active)

====

System: CP250
Assay: qHTS profiling for inhibitors of Plasmodium falciparum proliferation (AID 504749); also: nearly all actives have a fitted effect of over 60% in size
Details: P. falciparum in erythrocytes, SYBR Green DNA, 72 h; series mostly up to 28.7 µM
Inconclusive results are not listed. Active and inactive are the calls of the source. Calls come from the whole dose curve; as a rule, active = well fitted inhibition curve with a large enough effect; inconclusive = small, poorly fitted or top-dose-only effect; inactive = flat fitted curve, though single readings scatter.
Outcomes: 1 (yes) = active, 0 (no) = inactive

COMPOUND | TARGET UNDER TEST | CLASS LABEL
Cn1c(CCCC(=O)O)nc2cc(N(CCCl)CCCl)ccc21 | CP250 | 0 (no)
CC1OC(C)OC(C)O1 (configuration not stated) | CP250 | 0 (no)
Cc1ccc(-c2nc3ccc(C)cn3c2CC(=O)N(C)C)cc1 | CP250 | 0 (no)
CC[N+]1(C)CCCC(OC(=O)C(O)(c2ccccc2)c2ccccc2)C1 (configuration not stated) | CP250 | 0 (no)
COc1ccc(C(CN(C)C)C2(O)CCCCC2)cc1 (configuration not stated) | CP250 | 0 (no)
Cc1cccc(C)c1NC1=NCCCS1 | CP250 | 0 (no)
Cc1ncc(CNC(=O)N(CCCl)N=O)c(N)n1 | CP250 | 0 (no)
NN=C(N)N | CP250 | 0 (no)
c1ccc2c(c1)OCC(C1=NCCN1)O2 (configuration not stated) | CP250 | 0 (no)
c1ccc(C2CC2)c(OCC2=NCCN2)c1 | CP250 | 0 (no)
FC(F)(F)c1cccc(C2=CCN(CCc3ccc4ccccc4c3)CC2)c1 | CP250 | 0 (no)
Nc1ccncc1 | CP250 | 0 (no)
CC(C)(C)NCC(O)c1cc(Cl)c(N)c(Cl)c1 (configuration not stated) | CP250 | 0 (no)
CC(=O)Nc1cc([As](=O)(O)O)ccc1O | CP250 | 0 (no)
CC(C)(C)CC(C)(C)c1ccc(O)cc1 | CP250 | 0 (no)
Oc1ccccc1-c1ccccc1 | CP250 | 0 (no)
OCCOc1ccccc1 | CP250 | 0 (no)
CCC(C(N)=O)N1CCCC1=O (configuration not stated) | CP250 | 0 (no)
CCN(CC)CCOC(=O)C(O)(c1ccccc1)c1ccccc1 | CP250 | 0 (no)
Oc1cccc2cccnc12 | CP250 | 0 (no)
CC(=O)[C@H]1CC[C@H]2[C@@H]3CC[C@H]4C[C@H](O)CC[C@]4(C)[C@H]3C(=O)C[C@]12C | CP250 | 0 (no)
CCC(COC(=O)c1cc(OC)c(OC)c(OC)c1)(c1ccccc1)N(C)C (configuration not stated) | CP250 | 0 (no)
NCC(O)c1ccc(O)cc1 (configuration not stated) | CP250 | 0 (no)
Oc1ccc(Cl)cc1Cc1ccccc1 | CP250 | 0 (no)
C[C@]12C/C(=C/O)C(=O)C[C@@H]1CC[C@@H]1[C@@H]2CC[C@@]2(C)[C@H]1CC[C@]2(C)O | CP250 | 0 (no)
CCOC(=O)C1(c2ccccc2)CCN(CCC(C#N)(c2ccccc2)c2ccccc2)CC1 | CP250 | 1 (yes)
CC1NCCOC1c1ccccc1 (configuration not stated) | CP250 | 0 (no)

====

Test: Quantitative High-Throughput drug screen in 47 multiple myeloma cell lines against the NCATS MIPE library collection: KMM1_JCRB cell viability assay (AID 1918960); also: nearly all actives have a fitted effect of over 30% in size
Conditions: KMM1 myeloma viability, CellTiter-Glo ATP luminescence, 48 h; series mostly up to 45.8 µM
Inconclusive results are not listed. Active and inactive are the calls of the source. Calls come from the whole dose curve; as a rule, active = well fitted cell-killing curve with a large enough effect; inconclusive = small, poorly fitted or top-dose-only effect, or effect the other way; inactive = no such curve, though single readings can be large or run the other way.
Outcome codes: y (active), n (inactive)

MOLECULE | CLASS LABEL
CC(C)CC(N(C)C)C1(c2ccc(Cl)cc2)CCC1 (stereo unspecified) | n
O=C(O)C(=O)c1cn(Cc2ccccc2)c2ccc(-c3ccc(OC(F)(F)F)cc3)cc12 | n
N[C@@H](Cc1ccc(N(CCCl)CCCl)cc1)C(=O)O | y
COC[C@@H](NC(C)=O)C(=O)NCc1ccccc1 | n
Cc1cccc(C)c1NC(=O)CN1CCCC1=O | n
CN(C)[C@@H]1C(=O)C(C(N)=O)=C(O)[C@@]2(O)C(=O)C3=C(O)c4c(O)cccc4[C@@](C)(O)[C@H]3C[C@@H]12 | n
COc1ccc(C(=O)c2c(C)n(CCN3CCOCC3)c3ccccc23)cc1 | n
NCC1(CC(=O)O)CCCCC1 | n
C=C(C)[C@H]1Cc2c(ccc3c2O[C@@H]2COc4cc(OC)c(OC)cc4[C@@H]2C3=O)O1 | y
CN(C)CCN(C)CCc1ccc(Cl)c(Cl)c1 | n
O=C1CC[C@@]2(O)[C@H]3Cc4ccc(O)c5c4[C@@]2(CCN3CC2CC2)[C@H]1O5 | n
Cn1c(CCCC(=O)O)nc2cc(N(CCCl)CCCl)ccc21 | n
Cn1cc(C2=C(c3cn(C4CCN(Cc5ccccn5)CC4)c4ccccc34)C(=O)NC2=O)c2ccccc21 | y
CC1=C2C[C@@H]3[C@@H](CC=C4C[C@@H](O)CC[C@@]43C)[C@@H]2CC[C@]12O[C@H]1C[C@H](C)CN[C@H]1[C@H]2C | n
C[C@@H]1[C@@H](C(=O)C[C@H]2O[C@@H]3O[C@]4(C)CC[C@@H]5[C@H](C)CC[C@@H]([C@H]2C)[C@@]35OO4)O[C@@H]2O[C@]3(C)CC[C@H]4[C@H](C)CC[C@@H]1[C@@]24OO3 | y
CN1CCN(C(=O)O[C@H]2c3nccnc3C(=O)N2c2ccc(Cl)cn2)CC1 | n

====

Details: Ebola virus entry assay, blue channel fluorescence
Calls of active or inactive are those of the source.
Possible outcomes: active, inactive

MOLECULE | CLASS LABEL
NNCCc1ccccc1 | inactive
CC(C)[N+](C)(CCOC(=O)C1c2ccccc2Oc2ccccc21)C(C)C | inactive
COc1ccccc1OCC(O)CN1CCN(CC(=O)Nc2c(C)cccc2C)CC1 (centres undefined) | inactive
O=C(O)CCCc1ccccc1 | inactive
COc1cc(NC(C)CCCN)c2ncccc2c1 (centres undefined) | inactive
O=C1[C@H](CC[C@H](O)c2ccc(F)cc2)[C@@H](c2ccc(O)cc2)N1c1ccc(F)cc1 | inactive
COc1ccc2nc(S(=O)Cc3ncc(C)c(OC)c3C)[nH]c2c1 (centres undefined) | inactive
N=C(N)c1ccc(OCCCCCOc2ccc(C(=N)N)cc2)cc1 | inactive
CS(=O)(=O)CCNCc1ccc(-c2ccc3ncnc(Nc4ccc(OCc5cccc(F)c5)c(Cl)c4)c3c2)o1 | inactive
CC(C)C1CCC(C(=O)N[C@H](Cc2ccccc2)C(=O)O)CC1 (some centres undefined) | inactive
C[C@@H](NCCCc1cccc(C(F)(F)F)c1)c1cccc2ccccc12 | inactive
CCOC(=O)[C@H](CCc1ccccc1)N[C@@H](C)C(=O)N1Cc2cc(OC)c(OC)cc2C[C@H]1C(=O)O | inactive
O=C(c1ccccc1)c1ccc2n1CCC2C(=O)O (centres undefined) | inactive
NS(=O)(=O)c1cc2c(cc1Cl)NC=NS2(=O)=O | inactive
CC(C)NCC(O)COc1cccc2[nH]ccc12 (centres undefined) | inactive
Cc1[nH]cnc1CN1CCc2c(c3ccccc3n2C)C1=O | inactive
CN1C(=O)CC(C)(c2ccccc2)C1=O (centres undefined) | inactive
CN(C)C(=N)N=C(N)N | inactive
CCN(CC)CCN1C(=O)CN=C(c2ccccc2F)c2cc(Cl)ccc21 | inactive
C#Cc1cccc(Nc2ncnc3cc(OCCOC)c(OCCOC)cc23)c1 | inactive
COc1ccc(C(CN(C)C)C2(O)CCCCC2)cc1 (centres undefined) | inactive
CCCN(CCc1cccs1)[C@H]1CCc2c(O)cccc2C1 | inactive
O=C1CCc2ccc(OCCCCN3CCN(c4cccc(Cl)c4Cl)CC3)cc2N1 | inactive
COC(=O)C1=C(C)NC(C)=C(C(=O)OCCN(C)Cc2ccccc2)C1c1cccc([N+](=O)[O-])c1 (centres undefined) | inactive
COc1cc(C(C)=O)ccc1OCCCN1CCC(c2noc3cc(F)ccc23)CC1 | inactive
CC(=O)O[C@@]12CO[C@@H]1C[C@H](O)[C@@]1(C)C(=O)[C@H](O)C3=C(C)[C@@H](OC(=O)[C@H](O)[C@@H](NC(=O)OC(C)(C)C)c4ccccc4)C[C@@](O)([C@@H](OC(=O)c4ccccc4)[C@H]21)C3(C)C | inactive
CN(C)CCCN1c2ccccc2Sc2ccc(Cl)cc21 | active
CCC(C(N)=O)N1CCCC1=O (centres undefined) | inactive
CCN(C)C(=O)Oc1cccc([C@H](C)N(C)C)c1 | inactive
CCCNCC(O)COc1ccccc1C(=O)CCc1ccccc1 (centres undefined) | active
O=c1[nH]cc(F)c(=O)[nH]1 | inactive
CN1CCC(=C2c3ccccc3C=Cc3ccccc32)CC1 | inactive
Cc1ccc(S(=O)(=O)NC(=O)NN2CC3CCCC3C2)cc1 (centres undefined) | inactive
O=C1c2cccc3c2[C@H](CCC3)CN1[C@@H]1CN2CCC1CC2 | inactive
Cc1ccccc1C(OCCN(C)C)c1ccccc1 (centres undefined) | active
C[n+]1ccccc1/C=N/O | inactive
CC(C)NCC(O)COc1ccc(CCOCC2CC2)cc1 (centres undefined) | inactive
CNCCCC1c2ccccc2C=Cc2ccccc21 | active
O=C1CCc2cc(OCCCCc3nnnn3C3CCCCC3)ccc2N1 | inactive
CC(CN1c2ccccc2Sc2ccccc21)N(C)C (centres undefined) | inactive
CO[C@@]12[C@H](COC(N)=O)C3=C(C(=O)C(C)=C(N)C3=O)N1C[C@@H]1N[C@@H]12 | inactive
CC1(C)O[C@@H]2[C@@H](CO[C@@]3(COS(N)(=O)=O)OC(C)(C)O[C@@H]23)O1 | inactive
C[C@@H](O)[C@H]1C(=O)N2C(C(=O)O)=C(S[C@@H]3CN[C@H](CNS(N)(=O)=O)C3)[C@H](C)[C@H]12 | inactive
CO[C@]12CC[C@@]3(C[C@@H]1[C@](C)(O)C(C)(C)C)[C@@H]1Cc4ccc(O)c5c4[C@@]3(CCN1CC1CC1)[C@H]2O5 | inactive
